The following compounds are listed with their measured kinase still bound, per cent of control values.
molecular target: FLT4 (human) (UniProt P35916); test: KINOMEscan competition binding; conditions: compound 10.0 µM
Sequence (P35916 whole entry, looked up): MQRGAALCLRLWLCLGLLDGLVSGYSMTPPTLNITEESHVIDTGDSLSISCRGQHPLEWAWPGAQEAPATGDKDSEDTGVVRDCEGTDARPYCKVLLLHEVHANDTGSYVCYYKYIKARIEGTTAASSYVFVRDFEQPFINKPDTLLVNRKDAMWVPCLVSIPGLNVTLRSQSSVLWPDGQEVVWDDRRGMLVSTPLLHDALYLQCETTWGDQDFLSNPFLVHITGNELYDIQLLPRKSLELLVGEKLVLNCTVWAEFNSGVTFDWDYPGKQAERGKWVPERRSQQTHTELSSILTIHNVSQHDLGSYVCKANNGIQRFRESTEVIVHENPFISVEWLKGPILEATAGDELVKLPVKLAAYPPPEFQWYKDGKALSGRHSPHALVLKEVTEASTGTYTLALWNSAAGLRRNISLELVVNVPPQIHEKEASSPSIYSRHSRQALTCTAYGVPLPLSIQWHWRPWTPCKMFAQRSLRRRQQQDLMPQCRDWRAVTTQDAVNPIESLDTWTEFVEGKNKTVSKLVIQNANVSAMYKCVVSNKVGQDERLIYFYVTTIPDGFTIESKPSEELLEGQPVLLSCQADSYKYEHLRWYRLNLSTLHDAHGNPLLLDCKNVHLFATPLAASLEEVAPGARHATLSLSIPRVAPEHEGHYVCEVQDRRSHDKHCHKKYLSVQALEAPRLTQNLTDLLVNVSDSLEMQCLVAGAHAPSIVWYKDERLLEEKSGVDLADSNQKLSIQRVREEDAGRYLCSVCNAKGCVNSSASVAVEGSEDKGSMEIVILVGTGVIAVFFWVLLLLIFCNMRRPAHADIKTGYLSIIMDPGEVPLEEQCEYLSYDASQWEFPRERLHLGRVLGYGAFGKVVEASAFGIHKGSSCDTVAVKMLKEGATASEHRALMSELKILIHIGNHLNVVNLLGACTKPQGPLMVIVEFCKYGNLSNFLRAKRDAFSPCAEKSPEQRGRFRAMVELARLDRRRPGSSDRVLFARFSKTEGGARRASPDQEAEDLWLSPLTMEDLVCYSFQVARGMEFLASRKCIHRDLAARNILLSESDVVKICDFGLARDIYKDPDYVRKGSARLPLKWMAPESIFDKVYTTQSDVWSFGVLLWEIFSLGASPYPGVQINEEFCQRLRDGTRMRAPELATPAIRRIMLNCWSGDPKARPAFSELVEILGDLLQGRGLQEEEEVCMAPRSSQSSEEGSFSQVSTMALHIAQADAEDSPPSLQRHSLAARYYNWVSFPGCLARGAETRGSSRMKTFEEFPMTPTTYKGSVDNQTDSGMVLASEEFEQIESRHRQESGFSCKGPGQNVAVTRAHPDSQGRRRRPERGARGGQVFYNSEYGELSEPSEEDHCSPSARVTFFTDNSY

{"compound": "CCN1CCN(Cc2ccc(Nc3ncc4c(n3)N(C)c3ccccc3C(=O)N4C)cc2C(F)(F)F)CC1", "displayUnit": "%", "kinase still bound, per cent of control": 100}
{"compound": "C[C@@H](Oc1cc(-n2cnc3ccc(CN4CCN(C)CC4)cc32)sc1C(N)=O)c1ccccc1C(F)(F)F", "displayUnit": "%", "kinase still bound, per cent of control": 63}
{"compound": "COc1cc(C(=O)NC2CCN(C)CC2)ccc1Nc1ncc2c(n1)N(C1CCCC1)CCC(=O)N2C(C)C", "displayUnit": "%", "kinase still bound, per cent of control": 0}
{"compound": "CCOc1cc2ncc(C#N)c(Nc3ccc(OCc4ccccn4)c(Cl)c3)c2cc1NC(=O)/C=C/CN(C)C", "displayUnit": "%", "kinase still bound, per cent of control": 100}
{"compound": "CCC(=O)N1CCN(c2ccc(-n3c(=O)ccc4cnc5ccc(-c6cnc7ccccc7c6)cc5c43)cc2C(F)(F)F)CC1", "displayUnit": "%", "kinase still bound, per cent of control": 74}
{"compound": "CC[C@@H]1C(=O)N(C)c2cnc(Nc3ccc(C(=O)NC4CCN(C)CC4)cc3OC)nc2N1C1CCCC1", "displayUnit": "%", "kinase still bound, per cent of control": 100}
{"compound": "COc1cc(N2CCN(C)CC2)ccc1Nc1nc(N)c(C(=O)c2c(Cl)cccc2Cl)s1", "displayUnit": "%", "kinase still bound, per cent of control": 100}
{"compound": "O=C(NC1CC1)c1cccc(-c2ccc3c(NC(=O)C4CC4)n[nH]c3c2)c1", "displayUnit": "%", "kinase still bound, per cent of control": 100}
{"compound": "C=CC(=O)Nc1cccc(Nc2nc(N[C@H]3CC[C@H](N(C)C)CC3)nc3c2ncn3C(C)C)c1", "displayUnit": "%", "kinase still bound, per cent of control": 58}
{"compound": "Cc1ccc(NC(=O)c2cccc(C(C)(C)C#N)c2)cc1Nc1ccc2ncn(C)c(=O)c2c1", "displayUnit": "%", "kinase still bound, per cent of control": 0.15}
{"compound": "Cn1c(=O)n(-c2ccc(C(C)(C)C#N)cc2)c2c3cc(-c4cnc5ccccc5c4)ccc3ncc21", "displayUnit": "%", "kinase still bound, per cent of control": 100}
{"compound": "N#Cc1c(NC(=O)c2cccc3ccccc23)sc2c1CCCC2", "displayUnit": "%", "kinase still bound, per cent of control": 91}
{"compound": "Cc1ccc(C(=O)Nc2cccc(C(F)(F)F)c2)cc1Nc1cncc(C(N)=O)c1", "displayUnit": "%", "kinase still bound, per cent of control": 100}
{"compound": "O=C(NOC[C@H](O)CO)c1ccc(F)c(F)c1Nc1ccc(I)cc1F", "displayUnit": "%", "kinase still bound, per cent of control": 94}
{"compound": "CCCS(=O)(=O)Nc1ccc(F)c(C(=O)c2c[nH]c3ncc(-c4ccc(Cl)cc4)cc23)c1F", "displayUnit": "%", "kinase still bound, per cent of control": 82}
{"compound": "CN(C)C/C=C/C(=O)Nc1cccc(Nc2ncc3c(n2)N(C)c2ccccc2C(=O)N3C)c1", "displayUnit": "%", "kinase still bound, per cent of control": 100}
{"compound": "Cc1ccc2nc(NCCN)c3ncc(C)n3c2c1", "displayUnit": "%", "kinase still bound, per cent of control": 100}
{"compound": "C=CC(=O)Nc1cc(NC(=O)c2ccc(C)c(NC(=O)c3ccno3)c2)cc(C(F)(F)F)c1", "displayUnit": "%", "kinase still bound, per cent of control": 100}
{"compound": "Cc1cc([C@@H](C)Nc2ccccc2C(=O)O)c2nc(N3CCOCC3)cc(=O)n2c1", "displayUnit": "%", "kinase still bound, per cent of control": 95}
{"compound": "OCCCNc1cc(-c2ccnc(Nc3cccc(Cl)c3)n2)ccn1", "displayUnit": "%", "kinase still bound, per cent of control": 100}
{"compound": "C=CC(=O)Nc1cccc(Oc2nc(Nc3ccc(N4CCN(C)CC4)cc3OC)ncc2Cl)c1", "displayUnit": "%", "kinase still bound, per cent of control": 100}
{"compound": "O=C1Nc2ccc(I)cc2/C1=C/c1cc(Br)c(O)c(Br)c1", "displayUnit": "%", "kinase still bound, per cent of control": 100}
{"compound": "O=C(O)c1ccc(Nc2ncc3c(n2)-c2ccc(Cl)cc2C(c2c(F)cccc2F)=NC3)cc1", "displayUnit": "%", "kinase still bound, per cent of control": 18}
{"compound": "Nc1ccc(-c2ccc3ncc4ccc(=O)n(-c5cccc(C(F)(F)F)c5)c4c3c2)cn1", "displayUnit": "%", "kinase still bound, per cent of control": 85}
{"compound": "COc1cc(C(=O)NC2CCN(C)CC2)ccc1Nc1ncc2c(n1)N(C1CCCC1)C(C)CC(=O)N2C (stereo not given)", "displayUnit": "%", "kinase still bound, per cent of control": 100}

src = the kinase profiling compilation of Christmann-Franck et al. (2016)
